Field: Ratio. Provide a value for each of the molecules that follow.
Species on record: Mus musculus
experiment description: Ratio of quinone reductase specific activity in mouse Hepa1c1c7 cells to quinone reductase specific activity in mouse mutant BpRc1 cells
Assay type: cell-based
Numbers only.

Here is how some molecules turned out for Ratio.
# smiles data, measured parameter, number
records = [
    ("O=C(/C=C/c1c(-c2ccccc2)no[n+]1[O-])c1ccccc1O", "Ratio", 1.65),
    ("O=C(/C=C/c1c(-c2ccccc2)no[n+]1[O-])c1ccccc1", "Ratio", 1.2),
    ("O=C(/C=C/c1c(-c2ccccc2)no[n+]1[O-])c1ccc2ccccc2c1", "Ratio", 2.35),
    ("Cc1c(/C=C/C(=O)c2ccc3ccccc3c2)no[n+]1[O-]", "Ratio", 1.5),
    ("O=C(/C=C/c1ccc2c(c1)no[n+]2[O-])c1ccccc1", "Ratio", 0.59),
]

Task: Query: Ratio; subject: `Cc1c(/C=C/C(=O)c2ccccc2)no[n+]1[O-]`
Output: 1.34

====

System: Rattus norvegicus
experiment description: Toxicity in Wistar rat assessed as change in behaviors at 15 mg/kg/day, po for two weeks
Format: organism-based
run conditions: in vivo
measured parameter: Activity

Here is how some compounds turned out for Activity.
# compound, result
records = [
    ("O=C(/C=C/c1c(-c2ccccc2)no[n+]1[O-])c1ccccc1O", "Non-toxic"),
    ("COc1ccc(/C=C/C(=O)c2ccccc2)cc1", "Non-toxic"),
    ("O=C(/C=C/c1ccccc1)c1ccccc1O [2'-HYDROXYCHALCONE]", "Non-toxic"),
    ("O=C(/C=C/c1c(-c2ccccc2)no[n+]1[O-])c1ccccc1", "Non-toxic"),
]

Note: attention shifts to another entry.
Task: Hello, I am looking for reported Activity with Rattus norvegicus for `O=C(/C=C/c1ccc(Br)cc1)c1ccccc1O` . Could you help?
Output: Non-toxic

====

experiment description: Cytotoxicity against mouse mutant BpRc1 cells after 48 hrs by SRB assay
Format: cell-based
run conditions: BPrc1, 48 h
measured parameter: pIC50
Give bare numbers, as −log10 of the molar value.

Here is how some molecules turned out for pIC50.
# smiles data, pIC50
rows = [
    ("O=c1cc(-c2ccc(Br)cc2)oc2ccccc12", 3.82),
    ("CC(C)(C)c1cc(O)ccc1O", 4.22),
    ("O=C(/C=C/c1c(-c2ccccc2)no[n+]1[O-])c1ccccc1", 4.42),
]

Note: attention shifts to another entry.
Task: Query: pIC50; subject: `O=C(/C=C/c1c(-c2ccccc2)no[n+]1[O-])c1ccccc1O`
Output: 4.42

====

experiment description: Chemoprotective index, ratio of IC50 for mouse Hepa1c1c7 cells to CD for quinone reductase activity in mouse Hepa1c1c7 cells
measured parameter: Ratio
Answers are plain numbers.

Here is how some compounds turned out for Ratio.
# compound, Ratio
records = [
    ("O=c1cc(-c2ccc(Br)cc2)oc2ccccc12", 107),
    ("O=C(/C=C/c1c(-c2ccccc2)no[n+]1[O-])c1ccccc1O", 5),
    ("CC(C)(C)c1cc(O)ccc1O [E319]", 147),
]

Task: Query: Ratio; subject: `O=C(/C=C/c1c(-c2ccccc2)no[n+]1[O-])c1ccccc1`
Output: 3

====

Species: Mus musculus
experiment description: Ratio of quinone reductase specific activity in mouse Hepa1c1c7 cells to quinone reductase specific activity in mouse mutant BpRc1 cells
Type: cell-based
measured parameter: Ratio

Here is how some compounds turned out for Ratio.
# smiles data, measured parameter, result
data = [
    ("Cc1c(/C=C/C(=O)c2ccccc2O)no[n+]1[O-]", "Ratio", 1.26),
    ("O=C(/C=C/c1ccc2c(c1)no[n+]2[O-])c1ccc2ccccc2c1", "Ratio", 1.75),
    ("O=C(/C=C/c1ccc2c(c1)no[n+]2[O-])c1ccccc1O", "Ratio", 1.18),
]

Note: attention shifts to another entry.
Task: Query: Ratio; subject: `O=c1cc(-c2ccc(Br)cc2)oc2ccccc12`
Output: 2.99
